Reported relative viability values are given for each entry in this list.
- Test system: HARA
- test-method-notes: relative viability (nuclei count vs DMSO), 5 days (fraction); higher = more cells survive
- test-context: first compound 0.253 µM

# molecule, relative viability
records = [
    ("Cc1cnc(-c2cnc(NCCNc3ccc(C#N)cn3)nc2-c2ccc(Cl)cc2Cl)[nH]1 + O=C(CCCCCCC(=O)Nc1ccccc1)NO [Vorinostat] (partner 1 µM)", 0.612),
    ("O=c1[nH]c2ccccc2n1C1CCN(CCCC(c2ccc(F)cc2)c2ccc(F)cc2)CC1 [Pimozide] + CCNC(=O)c1noc(-c2cc(C(C)C)c(O)cc2O)c1-c1ccc(CN2CCOCC2)cc1 [Luminespib] (partner 0.01 µM)", 0.949),
    ("O=c1[nH]c2ccccc2n1C1CCN(CCCC(c2ccc(F)cc2)c2ccc(F)cc2)CC1 [Pimozide] + O=C(c1cc(Cc2n[nH]c(=O)c3ccccc23)ccc1F)N1CCN(C(=O)C2CC2)CC1 [Olaparib] (partner 8 µM)", 0.764),
]

###

- System: LC-2-ad
- test-method-notes: relative viability (nuclei count vs DMSO), 5 days (fraction); higher = more cells survive
- test-context: first compound 0.01581 µM
Labelling field: enter true if recorded relative viability is less than 0.3. Enter false if it equals or exceeds that cut-off.

# molecule, label-value
records = [
    ("COc1cc2nccc(Oc3ccc(NC(=O)Nc4cc(C)on4)c(Cl)c3)c2cc1OC [Tivozanib] + Nc1ncn([C@H]2C[C@H](O)[C@@H](CO)O2)c(=O)n1 [Decitabine] (partner 2 µM)", "false"),
    ("COc1cc2nccc(Oc3ccc(NC(=O)Nc4cc(C)on4)c(Cl)c3)c2cc1OC [Tivozanib] + CC(C)C[C@H](NC(=O)[C@H](Cc1ccccc1)NC(=O)c1cnccn1)B(O)O [Bortezomib] (partner 0.002 µM)", "false"),
    ("Nc1ccn([C@@H]2O[C@H](CO)[C@@H](O)[C@@H]2O)c(=O)n1 [Cytarabine] + CC1(C)CCC(c2ccc(Cl)cc2)=C(CN2CCN(c3ccc(C(=O)NS(=O)(=O)c4ccc(N[C@H](CCN5CCOCC5)CSc5ccccc5)c(S(=O)(=O)C(F)(F)F)c4)cc3)CC2)C1 [Navitoclax] (partner 0.5 µM)", "false"),
    ("COc1cc2nccc(Oc3ccc(NC(=O)Nc4cc(C)on4)c(Cl)c3)c2cc1OC [Tivozanib] + Nc1nc2[nH]cc(CCc3ccc(C(=O)N[C@@H](CCC(=O)O)C(=O)O)cc3)c2c(=O)[nH]1 [Pemetrexed] (partner 0.2 µM)", "true"),
    ("COc1cc2nccc(Oc3ccc(NC(=O)Nc4cc(C)on4)c(Cl)c3)c2cc1OC [Tivozanib] + CC(=O)c1c(C)c2cnc(Nc3ccc(N4CCNCC4)cn3)nc2n(C2CCCC2)c1=O [Palbociclib] (partner 0.5 µM)", "false"),
    ("COc1cc2nccc(Oc3ccc(NC(=O)Nc4cc(C)on4)c(Cl)c3)c2cc1OC [Tivozanib] + COc1cc2c(Oc3ccc(NC(=O)C4(C(=O)Nc5ccc(F)cc5)CC4)cc3F)ccnc2cc1OCCCN1CCOCC1 [Foretinib] (partner 0.25 µM)", "false"),
]

###

Measured relative viability values are reported for all entries that follow.
- System: NCI-H647
- test-method-notes: relative viability (nuclei count vs DMSO), 5 days (fraction); higher = more cells survive
- test-context: first compound 0.8 µM
endpoint-label: relative viability

# molecule, observed-result
measured = [
    ("Cc1cnc(-c2cnc(NCCNc3ccc(C#N)cn3)nc2-c2ccc(Cl)cc2Cl)[nH]1 + Nc1nc2[nH]cc(CCc3ccc(C(=O)N[C@@H](CCC(=O)O)C(=O)O)cc3)c2c(=O)[nH]1 [Pemetrexed] (partner 0.2 µM)", 0.145),
    ("Cc1cnc(-c2cnc(NCCNc3ccc(C#N)cn3)nc2-c2ccc(Cl)cc2Cl)[nH]1 + N=C(N)NC(=N)NCCc1ccccc1 [Phenformin] (partner 250 µM)", 0.391),
    ("Cc1cnc(-c2cnc(NCCNc3ccc(C#N)cn3)nc2-c2ccc(Cl)cc2Cl)[nH]1 + O=C(c1cc(Cc2n[nH]c(=O)c3ccccc23)ccc1F)N1CCN(C(=O)C2CC2)CC1 [Olaparib] (partner 8 µM)", 0.528),
]

###

- Test system: NCI-H2023
- test-method-notes: relative viability (nuclei count vs DMSO), 5 days (fraction); higher = more cells survive
- test-context: first compound 2.53 µM

# compound, relative viability
data = [
    ("O=c1[nH]c2ccccc2n1C1CCN(CCCC(c2ccc(F)cc2)c2ccc(F)cc2)CC1 [Pimozide] + Cc1nc(Nc2ncc(C(=O)Nc3c(C)cccc3Cl)s2)cc(N2CCN(CCO)CC2)n1 [Dasatinib] (partner 0.075 µM)", 0.438),
    ("Cc1cnc(-c2cnc(NCCNc3ccc(C#N)cn3)nc2-c2ccc(Cl)cc2Cl)[nH]1 + O=C(c1cc(Cc2n[nH]c(=O)c3ccccc23)ccc1F)N1CCN(C(=O)C2CC2)CC1 [Olaparib] (partner 8 µM)", 0.36),
    ("O=c1[nH]c2ccccc2n1C1CCN(CCCC(c2ccc(F)cc2)c2ccc(F)cc2)CC1 [Pimozide] + CC1(C)CCC(c2ccc(Cl)cc2)=C(CN2CCN(c3ccc(C(=O)NS(=O)(=O)c4ccc(N[C@H](CCN5CCOCC5)CSc5ccccc5)c(S(=O)(=O)C(F)(F)F)c4)cc3)CC2)C1 [Navitoclax] (partner 0.5 µM)", 0.957),
    ("Cc1cnc(-c2cnc(NCCNc3ccc(C#N)cn3)nc2-c2ccc(Cl)cc2Cl)[nH]1 + CS(=O)(=O)CCNCc1ccc(-c2ccc3ncnc(Nc4ccc(OCc5cccc(F)c5)c(Cl)c4)c3c2)o1 [Lapatinib] (partner 2 µM)", 0.913),
    ("Cc1cnc(-c2cnc(NCCNc3ccc(C#N)cn3)nc2-c2ccc(Cl)cc2Cl)[nH]1 + Cc1nc(NC(=O)N2CCC[C@H]2C(N)=O)sc1-c1ccnc(C(C)(C)C(F)(F)F)c1 [Alpelisib] (partner 2 µM)", 1.12),
    ("O=c1[nH]c2ccccc2n1C1CCN(CCCC(c2ccc(F)cc2)c2ccc(F)cc2)CC1 [Pimozide] + N=C(N)NC(=N)NCCc1ccccc1 [Phenformin] (partner 250 µM)", 0.385),
    ("O=c1[nH]c2ccccc2n1C1CCN(CCCC(c2ccc(F)cc2)c2ccc(F)cc2)CC1 [Pimozide] + C[C@@H](Oc1cc(-c2cnn(C3CCNCC3)c2)cnc1N)c1c(Cl)ccc(F)c1Cl [Crizotinib] (partner 1 µM)", 0.524),
    ("Cc1cnc(-c2cnc(NCCNc3ccc(C#N)cn3)nc2-c2ccc(Cl)cc2Cl)[nH]1 + CC(C)C[C@H](NC(=O)[C@H](Cc1ccccc1)NC(=O)c1cnccn1)B(O)O [Bortezomib] (partner 0.002 µM)", 0.978),
    ("O=c1[nH]c2ccccc2n1C1CCN(CCCC(c2ccc(F)cc2)c2ccc(F)cc2)CC1 [Pimozide] + Nc1ncn([C@H]2C[C@H](O)[C@@H](CO)O2)c(=O)n1 [Decitabine] (partner 2 µM)", 0.247),
]

###

- Tested on: LK-2
- test-method-notes: relative viability (nuclei count vs DMSO), 5 days (fraction); higher = more cells survive
- test-context: first compound 15.81 µM
Labelling field: enter 1.0 if recorded relative viability is less than 0.3. Enter 0.0 if it equals or exceeds that cut-off.

# compound, label-value
measured = [
    ("O=C(O)CCCCC(CCSCc1ccccc1)SCc1ccccc1 (stereo not given) [CPI-613] + CC1(C)CCC(c2ccc(Cl)cc2)=C(CN2CCN(c3ccc(C(=O)NS(=O)(=O)c4ccc(N[C@H](CCN5CCOCC5)CSc5ccccc5)c(S(=O)(=O)C(F)(F)F)c4)cc3)CC2)C1 [Navitoclax] (partner 0.5 µM)", 0.0),
    ("O=C(O)CCCCC(CCSCc1ccccc1)SCc1ccccc1 (stereo not given) [CPI-613] + Cc1cc(Nc2cc(N3CCN(C)CC3)nc(Sc3ccc(NC(=O)C4CC4)cc3)n2)n[nH]1 [Tozasertib] (partner 0.1 µM)", 1.0),
    ("O=C(O)CCCCC(CCSCc1ccccc1)SCc1ccccc1 (stereo not given) [CPI-613] + CC(=O)c1c(C)c2cnc(Nc3ccc(N4CCNCC4)cn3)nc2n(C2CCCC2)c1=O [Palbociclib] (partner 0.5 µM)", 0.0),
    ("O=C(O)CCCCC(CCSCc1ccccc1)SCc1ccccc1 (stereo not given) [CPI-613] + N=C(N)NC(=N)NCCc1ccccc1 [Phenformin] (partner 250 µM)", 0.0),
    ("O=C(O)CCCCC(CCSCc1ccccc1)SCc1ccccc1 (stereo not given) [CPI-613] + O=C(CCCCCCC(=O)Nc1ccccc1)NO [Vorinostat] (partner 1 µM)", 1.0),
]

###

- Tested on: NCI-H1975
- test-method-notes: relative viability (nuclei count vs DMSO), 5 days (fraction); higher = more cells survive
- test-context: first compound 0.01581 µM
endpoint-label: relative viability

# compound, assay-system, endpoint-label, observed-result
rows = [
    ("COc1cc2nccc(Oc3ccc(NC(=O)Nc4cc(C)on4)c(Cl)c3)c2cc1OC [Tivozanib] + Cc1nc(NC(=O)N2CCC[C@H]2C(N)=O)sc1-c1ccnc(C(C)(C)C(F)(F)F)c1 [Alpelisib] (partner 2 µM)", "NCI-H1975", "relative viability", 0.652),
    ("Nc1ccn([C@@H]2O[C@H](CO)[C@@H](O)[C@@H]2O)c(=O)n1 [Cytarabine] + Cc1cc(Nc2cc(N3CCN(C)CC3)nc(Sc3ccc(NC(=O)C4CC4)cc3)n2)n[nH]1 [Tozasertib] (partner 0.1 µM)", "NCI-H1975", "relative viability", 0.799),
    ("COc1cc2nccc(Oc3ccc(NC(=O)Nc4cc(C)on4)c(Cl)c3)c2cc1OC [Tivozanib] + O=C(CCCCCCC(=O)Nc1ccccc1)NO [Vorinostat] (partner 1 µM)", "NCI-H1975", "relative viability", 0.731),
    ("Nc1ccn([C@@H]2O[C@H](CO)[C@@H](O)[C@@H]2O)c(=O)n1 [Cytarabine] + Nc1ncn([C@H]2C[C@H](O)[C@@H](CO)O2)c(=O)n1 [Decitabine] (partner 2 µM)", "NCI-H1975", "relative viability", 0.353),
    ("Nc1ccn([C@@H]2O[C@H](CO)[C@@H](O)[C@@H]2O)c(=O)n1 [Cytarabine] + COc1cc2c(Oc3ccc(NC(=O)C4(C(=O)Nc5ccc(F)cc5)CC4)cc3F)ccnc2cc1OCCCN1CCOCC1 [Foretinib] (partner 0.25 µM)", "NCI-H1975", "relative viability", 1.03),
    ("COc1cc2nccc(Oc3ccc(NC(=O)Nc4cc(C)on4)c(Cl)c3)c2cc1OC [Tivozanib] + NC(=O)Nc1cc(-c2cccc(F)c2)sc1C(=O)N[C@H]1CCCNC1 [AZD7762] (partner 0.2 µM)", "NCI-H1975", "relative viability", 0.742),
    ("COc1cc2nccc(Oc3ccc(NC(=O)Nc4cc(C)on4)c(Cl)c3)c2cc1OC [Tivozanib] + CS(=O)(=O)CCNCc1ccc(-c2ccc3ncnc(Nc4ccc(OCc5cccc(F)c5)c(Cl)c4)c3c2)o1 [Lapatinib] (partner 2 µM)", "NCI-H1975", "relative viability", 0.871),
    ("Nc1ccn([C@@H]2O[C@H](CO)[C@@H](O)[C@@H]2O)c(=O)n1 [Cytarabine] + O=C(c1cc(Cc2n[nH]c(=O)c3ccccc23)ccc1F)N1CCN(C(=O)C2CC2)CC1 [Olaparib] (partner 8 µM)", "NCI-H1975", "relative viability", 0.871),
    ("COc1cc2nccc(Oc3ccc(NC(=O)Nc4cc(C)on4)c(Cl)c3)c2cc1OC [Tivozanib] + COc1cc2c(Oc3ccc(NC(=O)C4(C(=O)Nc5ccc(F)cc5)CC4)cc3F)ccnc2cc1OCCCN1CCOCC1 [Foretinib] (partner 0.25 µM)", "NCI-H1975", "relative viability", 0.967),
    ("COc1cc2nccc(Oc3ccc(NC(=O)Nc4cc(C)on4)c(Cl)c3)c2cc1OC [Tivozanib] + Nc1ncn([C@H]2C[C@H](O)[C@@H](CO)O2)c(=O)n1 [Decitabine] (partner 2 µM)", "NCI-H1975", "relative viability", 0.414),
    ("COc1cc2nccc(Oc3ccc(NC(=O)Nc4cc(C)on4)c(Cl)c3)c2cc1OC [Tivozanib] + CCNC(=O)c1noc(-c2cc(C(C)C)c(O)cc2O)c1-c1ccc(CN2CCOCC2)cc1 [Luminespib] (partner 0.01 µM)", "NCI-H1975", "relative viability", 0.34),
    ("Nc1ccn([C@@H]2O[C@H](CO)[C@@H](O)[C@@H]2O)c(=O)n1 [Cytarabine] + CS(=O)(=O)N1CCN(Cc2cc3nc(-c4cccc5[nH]ncc45)nc(N4CCOCC4)c3s2)CC1 [Pictilisib] (partner 1 µM)", "NCI-H1975", "relative viability", 0.281),
    ("Nc1ccn([C@@H]2O[C@H](CO)[C@@H](O)[C@@H]2O)c(=O)n1 [Cytarabine] + COc1cccc2cc(-c3nc([C@H]4CC[C@H](C(=O)O)CC4)n4ncnc(N)c34)[nH]c12 [OSI-027] (partner 0.5 µM)", "NCI-H1975", "relative viability", 0.775),
]
